Tested on: PANC-1
Experiment: In vitro cytotoxicity assay (CellTiter-Glo)
Assay type: cell-based
Conditions: 72 h exposure

COMPOUND	ASSAYED_TARGET	IC50
COCCOCCOCCOP(=O)(O)OC[C@H]1O[C@@H](n2ccc(N)nc2=O)C(F)(F)[C@@H]1O.Cl [Gemcitabine Mono (mPEG3), phosphate hydrochloride]	PANC-1	> 1e+06 nM
COCCOCCOCCOCCOCCOCCOCCOP(=O)(O)OC[C@H]1O[C@@H](n2ccc(N)nc2=O)C(F)(F)[C@@H]1O.Cl [Gemcitabine Mono (mPEG7), phosphate hydrochloride]	PANC-1	> 1e+06 nM

---

Tested on: MIA PaCa-2
Experiment: In vitro cytotoxicity assay (CellTiter-Glo)
Assay type: cell-based
Settings: 72 h exposure, CellTiter-Glo
Each record here notes measured IC50.
ASSAY_ENDPOINT: IC50 (nM)

MOLECULE	QUANTITATIVE_READOUT
COCCOCCOCCOP(=O)(O)OC[C@H]1O[C@@H](n2ccc(N)nc2=O)C(F)(F)[C@@H]1O.Cl [Gemcitabine Mono (mPEG3), phosphate hydrochloride]	76
COCCOCCOCCOP(=O)(O)OC[C@H]1O[C@@H](n2cc(F)c(=O)[nH]c2=O)C[C@@H]1O	64
COCCOCCOCCOCCOCCOCCOCCOP(=O)(O)OC[C@H]1O[C@@H](n2cc(F)c(=O)[nH]c2=O)C[C@@H]1O	96
COCCOCCOCCOCCOCCOCCOCCOP(=O)(O)OC[C@H]1O[C@@H](n2ccc(N)nc2=O)C(F)(F)[C@@H]1O.Cl [Gemcitabine Mono (mPEG7), phosphate hydrochloride]	84

Origin of the recorded values: patent US9365604B2
